melting point: recorded values

Worked cases, melting point given:
CC(C)OCC1(C(F)(F)F)c2cc(Cl)ccc2Nc2ncc(Cl)cc21 (centres unmarked) [Compound 9]; 137 to 138 °C
CC(C)OCC1(C(F)(F)F)c2cc(F)ccc2Nc2ncc(Cl)cc21 (centres unmarked) [Compound 6]; 96 to 97 °C
CC(C)OCC1(C(F)(F)F)c2cc(C#N)ccc2Nc2ncc(C#N)cc21 (centres unmarked) [Compound 17]; 226 to 227 °C
CC(C)OCC1(C(F)(F)F)c2cc(F)ccc2Nc2c1cc(Cl)c[n+]2[O-] (centres unmarked) [Compound 7]; 165 to 166 °C

Turning now to a further record.
## Input Please report melting point for the following compound: CC(C)OCC1(C(F)(F)F)c2cc(C#N)ccc2Nc2ncc(Br)cc21 (centres unmarked) [Compound 15]
## Output 76 to 77 °C

Cited source for all entries: patent US6825210B2
